- Test system: NCI-H522
- MEASUREMENT_NOTES: NCI tumour cell line growth inhibition, 48 h
Activity calls are given as the source filed them. Cut-off read from the data, not from the text of the source: active = GI50 up to about 1.1 µM and inactive = higher.
Labels: active, inactive

# MOLECULE, SUBJECT_OF_TEST, CLASSIFICATION
data = [
    ("Cc1cn(C2OC(CO)C(O)C2F)c(=O)[nH]c1=O (stereo not drawn)", "NCI-H522", "inactive"),
    ("Clc1ccc(Cl)c(SCCCN2CCNCC2)c1", "NCI-H522", "inactive"),
    ("NC1=NCC(CN2CCCCC2)O1 (stereo not drawn)", "NCI-H522", "inactive"),
    ("CC1CC(=O)N2CCCNC2=C1C#N (stereo not drawn)", "NCI-H522", "inactive"),
    ("Cn1c(=N)n[n+]([O-])c2ccccc21", "NCI-H522", "inactive"),
    ("CC(C)(C)OC(=O)C1=C(O)C(C(=O)OC(C)(C)C)C23CCCCC12C(C(=O)OC(C)(C)C)C(O)=C3C(=O)OC(C)(C)C (stereo not drawn)", "NCI-H522", "inactive"),
    ("C1CN(P2(N3CC3)=NP(N3CC3)(N3CC3)=NP(N3CC3)(N3CC3)=N2)CCO1 (stereo not drawn)", "NCI-H522", "inactive"),
    ("N=C(N)SCc1ccc2c(c1)Sc1ccccc1O2", "NCI-H522", "inactive"),
    ("C=C(C[C@@H](O)[C@H](C)NC(=O)OCc1ccccc1)C(=O)OC(C)(C)C", "NCI-H522", "inactive"),
    ("N#CCCC1(CCC#N)CCCCCCC(CCC#N)(CCC#N)C(=O)C1=O", "NCI-H522", "inactive"),
    ("COc1ccc2c(c1)CCc1c(CO)c(COC(=O)NC(C)C)n(C)c1-2", "NCI-H522", "inactive"),
    ("N#Cc1c(N)c(C(=O)O)nn(-c2cccc(C(F)(F)F)c2)c1=O", "NCI-H522", "inactive"),
    ("CC[C@@]1(O)C(=O)OCc2c1cc1n(c2=O)Cc2c-1nc1ccccc1c2/C=N\\NC(=O)C(N)CC(C)C (stereo partly drawn)", "NCI-H522", "active"),
    ("CN1c2ccccc2N(C)C23N(C)c4ccccc4N(C)C12N(C)c1ccccc1N3C (stereo not drawn)", "NCI-H522", "inactive"),
    ("O=C1c2ccccc2C(=O)c2c1ccc(C1C(=O)c3ccccc3C1=O)c2-c1c(C2C(=O)c3ccccc3C2=O)ccc2c1C(=O)c1ccccc1C2=O", "NCI-H522", "inactive"),
    ("Clc1cc(Cl)ncn1", "NCI-H522", "inactive"),
    ("COc1ccc(/C(Cl)=C(\\C=O)c2ccc(Cl)cc2)cc1", "NCI-H522", "inactive"),
    ("O=S1(=O)C(=C(c2ccccc2)c2ccccc2)S(=O)(=O)c2ccccc21", "NCI-H522", "inactive"),
    ("CC(C)(C)/N=C/N1C=Cc2nc3ccccc3cc2C1", "NCI-H522", "inactive"),
    ("O=c1[nH]c(=O)n([C@H]2CCCO2)cc1F", "NCI-H522", "inactive"),
    ("COC(=O)[C@@H]1CCc2nc3ccccc3c(=O)n21", "NCI-H522", "inactive"),
    ("O=C(c1cc2ccccc2[nH]1)C(O)(c1cc2ccccc2[nH]1)c1cc2ccccc2[nH]1", "NCI-H522", "inactive"),
    ("COc1c(/C=C/C=O)cc2c(c1OC)OCO2", "NCI-H522", "inactive"),
    ("O=C1C(=C/C=C2/SC(c3ccccc3)(c3ccccc3)c3ccccc32)C(=O)c2ccccc21", "NCI-H522", "inactive"),
    ("CN(C)C(=O)N(CCCl)N=O", "NCI-H522", "inactive"),
    ("CC1OC(=O)C2CC3CCCCC3C(/C=C/C3CCCC(C)N3C)C12 (stereo not drawn)", "NCI-H522", "inactive"),
    ("CCOc1cc(NC(C)=O)ccc1C(=O)NNS(=O)(=O)c1ccc(Cl)cc1Cl", "NCI-H522", "inactive"),
    ("COc1ccc(-c2cc(-c3cc(Cl)cc(Br)c3O)nc(O)n2)cc1", "NCI-H522", "inactive"),
    ("Nc1cc(CO)cc(Nc2nc3ccc(Cl)cc3c3[nH]c4ccccc4c23)c1", "NCI-H522", "inactive"),
    ("c1ccc2c(c1)N=c1cc3c(cc1N2)=NC12CCCCC1CC1=C(CCCC1)N32 (stereo not drawn)", "NCI-H522", "inactive"),
    ("NC1=NS(=O)(=O)N=C(N)C1=Cc1ccc([N+](=O)[O-])o1", "NCI-H522", "inactive"),
    ("Cc1cc(NS(=O)(=O)c2ccc(Nc3c4ccccc4nc4ccc(C(=O)Nc5ccc(S(N)(=O)=O)cc5)cc34)cc2)no1", "NCI-H522", "inactive"),
    ("CN(C)CCCNC(=O)c1c(O)c2ccccc2n(C)c1=O", "NCI-H522", "inactive"),
]
